Values were extracted from PubChem BioAssay.

# SYSTEM_TESTED: NADPH oxidase 2 (Homo sapiens)
# TEST_SUMMARY: NOX2-dependent H2O2 signal modulators, primary screen, NOX inhibitor project, cell-based, HEK293-NOX2, PMA-stimulated, Amplex Red fluorescence (AID 1159); further: test concentration not given here
# SETUP_CONDITIONS: 45 min, higher = more signal, called active from +8 up or from −8 down
Rule: Criterion met for z-score not less than -0.2, Criterion not met for anything less.

Would you please look over these solved cases?
>  <MOLECULE>
O=C1[C@H]2[C@H]3[C@H](O)[C@H](O)CC(=NO[C@@H]4O[C@H](CO)[C@@H](O)[C@H](O)[C@H]4O)[C@@H]3CC[C@H]2C(=O)N1c1ccc(F)cc1F

>  <SYSTEM_TESTED>
NADPH oxidase 2 (Homo sapiens)

>  <CLASS_NAME>
Criterion met

$$$$
>  <MOLECULE>
COCCCNC(=O)[C@]1(Cc2ccccc2)N=C(c2ccc(OCCCO)cc2)O[C@@H]1c1ccccc1

>  <SYSTEM_TESTED>
NADPH oxidase 2 (Homo sapiens)

>  <CLASS_NAME>
Criterion not met

$$$$
>  <MOLECULE>
CC(C)NC(=O)[C@@]1(C)c2ccccc2C(=O)N(Cc2cc(F)cc(C(F)(F)F)c2)[C@H]1c1ccc(CO)cc1

>  <SYSTEM_TESTED>
NADPH oxidase 2 (Homo sapiens)

>  <CLASS_NAME>
Criterion met

$$$$
>  <MOLECULE>
NCCCCCNC(=O)[C@@H]1C[C@@H]2C(=O)N3CCC[C@H]3C(=O)N2[C@@H]1c1cccc(OCCO)c1

>  <SYSTEM_TESTED>
NADPH oxidase 2 (Homo sapiens)

>  <CLASS_NAME>
Criterion met

$$$$
>  <MOLECULE>
C#CCCCON=C1C[C@@H](O)[C@@H](O)[C@@H]2[C@@H]3C(=O)N(CCC(=O)OCC)C(=O)[C@@H]3CC[C@@H]12

>  <SYSTEM_TESTED>
NADPH oxidase 2 (Homo sapiens)

>  <CLASS_NAME>
Criterion not met

$$$$

Please check the record COC(=O)[C@H](C)NC(=O)CCC1CC(OC(=O)NCCc2ccc(F)cc2)CC2(CCCC(COC(=O)NCC(c3ccccc3)c3ccccc3)O2)O1 (stereo partly drawn) and state if its z-score is at or above -0.2.
Criterion met

Evaluate COc1ccc(CCNC(=O)[C@@H]2c3ccccc3C(=O)N(c3ccc(C)cn3)[C@H]2c2ccc(CO)cc2)cc1 : z-score at minimum -0.2?
Criterion met

----------
# SYSTEM_TESTED: Homeobox protein Hox-A13 (Mus musculus) (UniProt Q62424)
# Sequence (Q62424 whole entry, looked up): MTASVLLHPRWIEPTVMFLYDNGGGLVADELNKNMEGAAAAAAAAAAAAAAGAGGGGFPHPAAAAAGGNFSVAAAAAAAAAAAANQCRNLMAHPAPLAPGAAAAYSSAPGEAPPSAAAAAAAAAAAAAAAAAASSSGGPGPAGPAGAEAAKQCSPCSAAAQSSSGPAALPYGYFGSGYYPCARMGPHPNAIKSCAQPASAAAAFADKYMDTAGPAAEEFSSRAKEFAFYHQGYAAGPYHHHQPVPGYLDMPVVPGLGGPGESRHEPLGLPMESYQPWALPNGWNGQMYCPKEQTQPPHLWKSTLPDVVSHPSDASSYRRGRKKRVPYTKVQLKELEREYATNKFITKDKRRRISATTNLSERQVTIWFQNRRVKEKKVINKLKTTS
# TEST_SUMMARY: inhibitors of HoxA13-DNA binding, primary screen, biochemical, fluorescence polarization, labeled oligonucleotide (AID 1185)
# SETUP_CONDITIONS: 15 min, higher = more signal, called active from +8 up or from −8 down
MEASURED_METRIC: z-score
Field format: numeric only.

Answered examples (2):
>  <COMPOUND>
C=CCOC(=O)[C@H]1[C@@H]2C(=O)O[C@@H](c3ccccc3)[C@@H](c3ccccc3)N2[C@@H](c2ccc(OCCOC(=O)[C@H]3C[C@H]4C(=O)N5CCC[C@H]5C(=O)N4[C@H]3c3cccc(OCCO)c3)cc2)[C@]12C(=O)Nc1ccc(I)cc12

>  <z-score>
-1.27

$$$$
>  <COMPOUND>
CC(C)C[C@@H]1NC(=O)[C@H]2C[C@@H](C(=O)O)[C@@H](c3ccc(O)cc3)N2C1=O

>  <z-score>
-2.19

$$$$

Input C=C(COC)/C(=C/C[C@H](OC(=O)c1ccncc1)c1ccc(CO)o1)c1cc(C(=O)OC)ccc1OC , output reported z-score.
-5.06
